System: OVCAR-3
Assay Text: NCI tumour cell line growth inhibition, 48 h
The source made the active and inactive calls. Rule as the data show it: active = GI50 up to about 1.1 µM and inactive = higher. Square brackets hold non-standard residues; d marks the D form. Peptide text beside a SMILES is read from it. pGlu = O=C1CC[C@@H](C(=O)O)N1; Thz = O=C(O)[C@@H]1CSCN1
Hi! Could you answer with just one of these? YES (active), NO (inactive)

(Q) Test call, this compound: COCCOc1cc(C)cc(/C=C(C)/C=C/C2=C(C)CCCC2(C)C)n1
(A) NO

(Q) Please answer likewise for C=CCN1C[C@@H](C)N([C@@H](c2ccc(C(=O)N(CC)CC)cc2)c2cccc(OC)c2)C[C@@H]1C
(A) NO

(Q) Please answer likewise for COc1ccc(Br)c(N/N=C2\CCCNC2=O)c1
(A) NO

(Q) Please answer likewise for O=C1CC[C@@H](C(=O)N2CSC[C@H]2C(=O)O)N1 [PIDOTIMOD] ([pGlu]-[Thz]-OH)
(A) NO

***
(Q) Test call, this compound: O=C(c1c(F)c(F)c(F)c(F)c1F)c1c(F)c(F)c(F)c(F)c1F
(A) YES

---

System: RXF 393
Assay Text: NCI tumour cell line growth inhibition, 48 h
Calls of active or inactive are those of the source. No stated cut-off is given here; in the data, active = GI50 up to about 1.1 µM and inactive = higher.
Measure: GI50

(Q) Lab note: need GI50 for CCC(=O)Nc1ccc(/N=N/N(C)C)cc1 on RXF 393, anyone have it?
(A) > 100 µM (inactive)

---

GI50 values for the molecules below.
Test system: MCF7
Assay Text: NCI tumour cell line growth inhibition, 48 h
The source made the active and inactive calls. Rule as the data show it: active = GI50 up to about 1.1 µM and inactive = higher.

(Q) Lab note: need GI50 for [O-][S+]1SC(=S)C2C=CC=CC21 (stereo unspecified) on MCF7, anyone have it?
(A) 76.9 µM (inactive)

(Q) Please answer likewise for N#CCN(Cc1ccccc1)[C@H]1CCC[C@]1(O)/C=C/c1ccc2c(c1)OCO2
(A) 18.7 µM (inactive)

(Q) Please answer likewise for COC(=O)[C@@]1(NC(=O)C(CC(=O)OC(C)(C)C)NC(=O)OC(C)(C)C)C[C@H]1C (stereo partly specified)
(A) > 100 µM (inactive)

(Q) Please answer likewise for Clc1cc(OCC23CC4CC(CC(C4)C2)C3)nc(OCC23CC4CC(CC(C4)C2)C3)n1
(A) > 100 µM (inactive)

(Q) Please answer likewise for COC(=O)c1ccc(C)cc1C1CN=NC12Cc1cccc(C)c1C2=O (stereo unspecified)
(A) 91.2 µM (inactive)

***
(Q) Lab note: need GI50 for CCN(CC)CCNc1ccc2nnn3c4ccc(O)cc4c(=O)c1c23 on MCF7, anyone have it?
(A) 2.7 µM (inactive)

(Q) Please answer likewise for O=C(O)C[C@@H]1[C@@H](O)[C@@H](O)CN2C(=O)c3ccccc3[C@H]12
(A) > 100 µM (inactive)

(Q) Please answer likewise for CNC(=S)N1CCN(C(C)=O)C1=S
(A) 42 µM (inactive)

(Q) Please answer likewise for c1ccc(CNc2ncnc3nn[nH]c23)cc1
(A) > 100 µM (inactive)

(Q) Please answer likewise for CN(C)C(=O)NCCN1CCCCCc2ccccc21
(A) > 100 µM (inactive)

(Q) Please answer likewise for COc1cc(Br)c(CC2C3=C(CCN2C(=O)C2CCC2)CC2(CC3)OCCO2)cc1O (stereo unspecified)
(A) 28.6 µM (inactive)
